Taken from ChEMBL document CHEMBL1154452.

Assay: Stability in human plasma assessed as level of lactone form of compound after 4 hrs by HPLC
Assay type: ADME, cell-free
Conditions: read-out: Activity
Known remaining at 4 h of a selection of compounds
Please reply with the bare figure in % and do not write the unit itself.

Query: Data request, read-out remaining at 4 h, for CC[C@@]1(O)C(=O)OCc2c1cc1n(c2=O)Cc2cc3ccccc3nc2-1 [CAMPTOTHECIN]
Result: 28.4

Lab note: next compound to report on.
Query: Data request, read-out remaining at 4 h, for "CC[C@@]1(OC(=O)CNC(=O)C2=CC(C)(C)N(O)C2(C)C)C(=O)OCc2c1cc1n(c2=O)Cc2cc3ccccc3nc2-1"
Result: 65.2
